# System: Enterococcus faecium (9001)
# METHOD_DESCRIPTION: Antibiogram by diffusion technique (CA-SFM 2008); further: key: sensitive (S): strains for which the MIC of the antibiotic tested is less than or equal to the lower critical concentration c; resistant (R): strains for which the MIC of the antibiotic tested are greater than the upper critical concentration C; intermediate sensitivity (I): strains for which the MIC of the antibiotic tested and the corresponding diameter are between the two critical concentrations and the two critical diameters
# Type: cell-based
# SETUP_CONDITIONS: strain 9001
EXPERIMENTAL_ENDPOINT: Category

Observe how each entry below is paired with its result.
[
  {
    "MOLECULE": "CC1(C)S[C@@H]2[C@H](NC(=O)[C@H](N)c3ccccc3)C(=O)N2[C@H]1C(=O)O [Ampi]",
    "TARGET_DESC": "Enterococcus faecium (9001)",
    "Category": "R"
  },
  {
    "MOLECULE": "CC(=O)NC[C@H]1CN(c2ccc(N3CCOCC3)c(F)c2)C(=O)O1 [Linezolid]",
    "TARGET_DESC": "Enterococcus faecium (9001)",
    "Category": "S"
  },
  {
    "MOLECULE": "CN[C@H](CC(C)C)C(=O)N[C@H]1C(=O)N[C@@H](CC(N)=O)C(=O)N[C@H]2C(=O)N[C@H]3C(=O)N[C@H](C(=O)N[C@H](C(=O)O)c4cc(O)cc(O)c4-c4cc3ccc4O)[C@H](O)c3ccc(c(Cl)c3)Oc3cc2cc(c3O[C@@H]2O[C@H](CO)[C@@H](O)[C@H](O)[C@H]2O[C@H]2C[C@](C)(N)[C@H](O)[C@H](C)O2)Oc2ccc(cc2Cl)[C@H]1O [Vanco]",
    "TARGET_DESC": "Enterococcus faecium (9001)",
    "Category": "R"
  },
  {
    "MOLECULE": "COc1c(N2C[C@@H]3CCCN[C@@H]3C2)c(F)cc2c(=O)c(C(=O)O)cn(C3CC3)c12 [Moxiflo]",
    "TARGET_DESC": "Enterococcus faecium (9001)",
    "Category": "R"
  },
  {
    "MOLECULE": "C[C@H]1COc2c(N3CCN(C)CC3)c(F)cc3c(=O)c(C(=O)O)cn1c23 [Levofloxacin]",
    "TARGET_DESC": "Enterococcus faecium (9001)",
    "Category": "R"
  }
]

Proceeding to the next molecule to report its Category.
Q) Identify Category associated with the molecule CN(C)[C@@H]1C(O)=C(C(N)=O)C(=O)[C@@]2(O)C(O)=C3C(=O)c4c(O)cccc4[C@@](C)(O)[C@H]3C[C@@H]12 [Tetra]
A) S
